Give remaining at 3 h, 30 µM for every item shown.
assay: Metabolic stability in human HCT116 cells assessed as compound remaining at 30 uM after 3 hrs by HPLC analysis; assay type: ADME, cell-based, HCT-116; conditions: read-out: Stability
Give a bare numeral; the unit % is implied.

Task item: What value of remaining at 3 h, 30 µM has been reported for the following compound? CC(C)OC(=O)OCOc1c(-c2ccc(O)c(O)c2)oc2cc(O)cc(O)c2c1=O
Reply: 76

Task item: Would you kindly share the measured remaining at 3 h, 30 µM for CC(C)OC(=O)OCOc1cc(O)c2c(=O)c(O)c(-c3ccc(O)c(O)c3)oc2c1 ?
Reply: 34

Task item: I am curious: what remaining at 3 h, 30 µM value has been reported for CC(C)OC(=O)OCOc1cc(O)c2c(=O)c(OCOC(=O)OC(C)C)c(-c3ccc(O)c(O)c3)oc2c1 ?
Reply: 47

###

Provide the recorded remaining at 1 h, 30 µM for the entries that follow.
test: Metabolic stability in human MCF7 cells assessed as compound remaining at 30 uM after 1 hr by HPLC analysis; format: ADME, cell-based; settings: read-out: Stability
Returns: string containing the numeric result and its unit.

Task item: Fill in the blank: the reported remaining at 1 h, 30 µM of CC(C)OC(=O)OCOc1cc(O)c2c(=O)c(O)c(-c3ccc(O)c(O)c3)oc2c1 is ____.
Reply: 51%

Task item: Query (compound): CC(C)OC(=O)OCOc1cc(O)c2c(=O)c(OCOC(=O)OC(C)C)c(-c3ccc(O)c(O)c3)oc2c1 ; field requested: remaining at 1 h, 30 µM
Reply: 25%

Task item: Look up remaining at 1 h, 30 µM for this compound: CC(C)OC(=O)OCOc1c(-c2ccc(O)c(O)c2)oc2cc(O)cc(O)c2c1=O
Reply: 92%

###

Could you please report measured remaining at 3 h, 30 µM for the items listed next?
experiment: Metabolic stability in human MCF7 cells assessed as compound remaining at 30 uM after 3 hrs by HPLC analysis; assay type: ADME, cell-based; conditions: read-out: Stability
Supply the numeric figure in %, leaving out any unit text.

Task item: Data request, read-out remaining at 3 h, 30 µM, for CC(C)OC(=O)OCOc1c(-c2ccc(O)c(O)c2)oc2cc(O)cc(O)c2c1=O
Reply: 49

Task item: Reported remaining at 3 h, 30 µM for CC(C)OC(=O)OCOc1cc(O)c2c(=O)c(O)c(-c3ccc(O)c(O)c3)oc2c1 : what is it?
Reply: 6

Task item: Entry CC(C)OC(=O)OCOc1cc(O)c2c(=O)c(OCOC(=O)OC(C)C)c(-c3ccc(O)c(O)c3)oc2c1 has what remaining at 3 h, 30 µM?
Reply: 6

###

test: Half life of the compound in DMEM cell-free cell culture medium at 50 uM by HPLC analysis; assay type: physicochemical
Exercise: for every item that follows, state its recorded half-life at 50 µM.
Number only, in h; omit the unit.

Task item: For the molecule shown here, CC(C)OC(=O)OCOc1c(-c2ccc(O)c(O)c2)oc2cc(O)cc(O)c2c1=O , give the reported half-life at 50 µM.
Reply: 54

Task item: Could you tell me which half-life at 50 µM is on file for CC(C)OC(=O)OCOc1cc(O)c2c(=O)c(O)c(-c3ccc(O)c(O)c3)oc2c1 ?
Reply: 1

Task item: Quick one: half-life at 50 µM of CC(C)OC(=O)OCOc1cc(O)c2c(=O)c(OCOC(=O)OC(C)C)c(-c3ccc(O)c(O)c3)oc2c1 ?
Reply: 24

###

Hi there, I'd appreciate the recorded half-life at 50 µM for every entry that follows.
assay: Half life of the compound in PBS buffer at pH 7.4 at 50 uM by HPLC analysis; assay type: physicochemical

Task item: Fill blank: measured half-life at 50 µM of the compound O=c1c(O)c(-c2ccc(O)c(O)c2)oc2cc(O)cc(O)c12 is ____.
Reply: 10 h

Task item: # input compound: CC(C)OC(=O)OCOc1cc(O)c2c(=O)c(OCOC(=O)OC(C)C)c(-c3ccc(O)c(O)c3)oc2c1 ; wanted: its half-life at 50 µM
Reply: > 96 h

Task item: Tell me the measured half-life at 50 µM of CC(C)OC(=O)OCOc1cc(O)c2c(=O)c(O)c(-c3ccc(O)c(O)c3)oc2c1 , please.
Reply: > 96 h

Task item: Fill in the blank: the reported half-life at 50 µM of CC(C)OC(=O)OCOc1c(-c2ccc(O)c(O)c2)oc2cc(O)cc(O)c2c1=O is ____.
Reply: > 96 h

###

assay: Metabolic stability in human MCF7 cells assessed as compound remaining at 30 uM after 6 hrs by HPLC analysis; format: ADME, cell-based; conditions: read-out: Stability
For each entry below, report its remaining at 6 h, 30 µM value.
Give the quantity in %, number only.

Task item: # get_value(readout='remaining at 6 h, 30 µM', item= CC(C)OC(=O)OCOc1cc(O)c2c(=O)c(O)c(-c3ccc(O)c(O)c3)oc2c1 )
Reply: 2

Task item: Recorded remaining at 6 h, 30 µM for CC(C)OC(=O)OCOc1cc(O)c2c(=O)c(OCOC(=O)OC(C)C)c(-c3ccc(O)c(O)c3)oc2c1 , please?
Reply: 1

Task item: Recorded remaining at 6 h, 30 µM for CC(C)OC(=O)OCOc1c(-c2ccc(O)c(O)c2)oc2cc(O)cc(O)c2c1=O , please?
Reply: 4
